Target: HIV reverse transcriptase (Human immunodeficiency virus type 1 group M subtype B, UniProt P03366)
Assay: Reverse transcriptase scintillation proximity assay (Example 4, Table 2)
Assay type: biochemical
Conditions: 0.05 h, 10 μM inhibitor; relative to dimethyl sulfoxide = 100%; read-out: % RT activity remaining at 10 μM
Description: Reverse transcriptase ("RT") activity is measured using a scintillation proximity assay kit available from Amersham Life Sciences, Inc., which uses a biotin/streptavidin bead capture system. RNA-dependent polymerase activity is measured using purified […] and a synthetic 17mer/50mer RNA-DNA template-primer containing biotin at the 5' end of the DNA. […] The amount of d*TTP incorporated in the polymer is measured with a scintillation counter. […]
REPORTED ENDPOINT: remaining activity at 10 µM (%)
Give bare numbers, in %.

* COC(=O)c1ccc(N=Nc2c(S(=O)(=O)O)cc3cc(NC(=O)Nc4ccc5c(O)c(N=Nc6ccc(C(=O)OC)cc6I)c(S(=O)(=O)O)cc5c4)ccc3c2O)c(I)c1 | 2
* COC(=O)/C=C/c1ccc(N=Nc2c(S(=O)(=O)O)cc3cc(NC(=O)Nc4ccc5c(O)c(N=Nc6ccc(/C=C/C(=O)OC)cc6)c(S(=O)(=O)O)cc5c4)ccc3c2O)cc1 | 27
* O=C(O)/C=C/c1ccc(N=Nc2c(S(=O)(=O)O)cc3cc(Nc4c(Nc5ccc6c(O)c(N=Nc7ccc(/C=C/C(=O)O)cc7)c(S(=O)(=O)O)cc6c5)c(=O)c4=O)ccc3c2O)cc1 | 0.6
* O=C(Nc1ccc2c(O)cc(S(=O)(=O)O)cc2c1)Nc1cccc2ccccc12 | 90
* O=C(O)c1cccc(N=Nc2c(S(=O)(=O)O)cc3cc(NC(=O)c4ccc(C(=O)Nc5ccc6c(O)c(N=Nc7cccc(C(=O)O)c7)c(S(=O)(=O)O)cc6c5)cc4)ccc3c2O)c1 | 0.1

Would you kindly look at the next entry?
For "O=C(O)c1cccc(N=Nc2c(S(=O)(=O)O)cc3cc(Nc4c(Nc5ccc6c(O)c(N=Nc7cccc(C(=O)O)c7)c(S(=O)(=O)O)cc6c5)c(=O)c4=O)ccc3c2O)c1" the compound record lists remaining activity at 10 µM as 0.5
